# EXPERIMENTAL DETAILS: qHTS assay to identify small molecule agonists of the vitamin D receptor (VDR) signaling pathway - cell viability counter screen (AID 743224); note: nearly all actives have a fitted effect of over 50% in size
# CONDITION SUMMARY: VDR-bla HEK293T viability, CellTiter-Glo luminescence, 16 h; series mostly up to 62.6 µM
Results filed as inconclusive are left out. Active and inactive are the calls of the source. Calls come from the whole dose curve; as a rule, active = well fitted cell-killing curve with a large enough effect in the repeat runs; inconclusive = weak or mixed curves, or effect the other way; inactive = no such curve, though single readings can be large or run the other way.
Outcome codes: 1.0 for active, 0.0 for inactive

1. CC(C)(C)C1(CCc2ccc(Cl)cc2)CO1 (configuration not stated) :: 0.0
2. COc1ccc(-c2cc(=S)ss2)cc1 :: 0.0
3. Cc1cccc(C)c1NC(=O)c1cc(S(N)(=O)=O)c(Cl)cc1O :: 0.0
4. O[C@@H](CNC[C@H](O)[C@H]1CCc2cc(F)ccc2O1)[C@@H]1CCc2cc(F)ccc2O1 :: 1.0
5. Cc1ccc(Cl)cc1N :: 0.0
6. CCNc1nc(N)nc(Cl)n1 :: 0.0
7. O=c1[nH]c2cc(C(F)(F)F)c(N3CCOCC3)cc2n(CP(=O)(O)O)c1=O :: 0.0
